These data points were gathered from ChEMBL document CHEMBL1201862.

system: OVCAR-5; experiment: NCI tumour cell line growth inhibition, 48 h
Active and inactive are the calls of the source. Rule as the data show it: active = GI50 up to about 1.1 µM and inactive = higher.

>  <Compound>
c1ccc2c(c1)nc1n2CSCC1

>  <GI50>
> 100 µM (inactive)

$$$$
>  <Compound>
CN(C)c1ccc2c(NCCCCCCNc3ccnc4cc(N(C)C)ccc34)ccnc2c1

>  <GI50>
25.2 µM (inactive)

$$$$
>  <Compound>
c1ccc(CSc2nc(N3CCOCC3)c3cn[nH]c3n2)cc1

>  <GI50>
22.3 µM (inactive)

$$$$
>  <Compound>
C1=N\CCN2CCN(CC/N=C\c3ccc(cc3)OCc3cccc(n3)COc3ccc/1cc3)CC2

>  <GI50>
> 50 µM (inactive)

$$$$
>  <Compound>
CC(=O)O[C@@H]1CC[C@@]2(C)C(CC[C@H]3[C@@H]4CC[C@H]([C@H](C)CCc5nc6cc(C)ccc6[nH]5)[C@@]4(C)CC[C@@H]32)C1 (some centres not stated)

>  <GI50>
> 100 µM (inactive)

$$$$
>  <Compound>
COc1ccc(C(=O)C/C(=N/NC(N)=S)C(=O)Nc2ccccc2)cc1

>  <GI50>
> 100 µM (inactive)

$$$$
>  <Compound>
CCOP(=O)(Cc1ccc(CP(=O)(OCC)OCC)n1C)OCC

>  <GI50>
> 100 µM (inactive)

$$$$
>  <Compound>
COC(=O)[C@]1(c2cc3ccccc3[nH]2)CC2CNC1C1OC(C)(C)OC21 (some centres not stated)

>  <GI50>
> 100 µM (inactive)

$$$$
>  <Compound>
Cc1ccc2c3c1O[C@H]1c4[nH]c5ccccc5c4C[C@@]4(O)[C@@H](C2)N(CC2CC2)CC[C@]314

>  <GI50>
18.7 µM (inactive)

$$$$
>  <Compound>
CC(=O)Oc1ccccc1C(=O)C1c2cccc(O)c2C(=O)c2c(O)cccc21

>  <GI50>
2.58 µM (inactive)

$$$$
>  <Compound>
CCc1n[nH]c(=O)n1CC

>  <GI50>
> 100 µM (inactive)

$$$$
>  <Compound>
CC(C)=C[C@@H]1C[C@H](C)c2c(O)cc(C)c3c2C1=C(C)C(=O)C3=O [ELISABATIN A]

>  <GI50>
24.7 µM (inactive)

$$$$
